# assaySystem: T1, full length human KLRG1 (human, UniProt Q96E93 1-195)
# T1 construct: whole, on cells; also called CHO-human-KLRG1; CHO-hKLRG1
# T1 sequence (looked up): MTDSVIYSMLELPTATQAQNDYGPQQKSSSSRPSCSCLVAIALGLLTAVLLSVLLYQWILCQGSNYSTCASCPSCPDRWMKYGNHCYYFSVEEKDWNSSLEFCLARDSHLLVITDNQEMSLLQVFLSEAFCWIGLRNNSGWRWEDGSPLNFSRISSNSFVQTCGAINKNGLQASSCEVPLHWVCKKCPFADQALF
# methodDescription: FACS competition, loss of HIS tagged E-cadherin binding to CHO-hKLRG1 cells

{"columns": ["binder", "uom", "IC50"],
 "data": [
  ["ABC_G1N05 (antibody, V domains shown, Mouse hybridoma monoclonal antibody) VH: EVLLMESGGDLVKPGGSLKLSCAASGFTFSSYDMSWVRQTPDKRLEWVATISSSGRYTFYPDNVKGRFTISRDNAKNTLYLQVSNLKSEDTAMYYCSRTGVTTVVFTDYFDYWGQGTTLTVSS VL: DIQMTQSPSSLSASLGERVSLTCRASQDIGNSLNWLQQGPDGTIKRLIYATSSLDSGVPKRFSGSRSGSTYSLTISSLESEDFVAYYCLQYLSSPPTFGGGTKLEIK", "nM", 23],
  ["ABC_G1N06 (antibody, V domains shown, Mouse hybridoma monoclonal antibody) VH: QVQLKQSGPGLVQPSQSLSITCTVSGFSLTTHAVHWVRQSPGKGLDWLGVIWSGGNTDYNAAFISRLTISKDNSKSQVFFKMNSLQADDTAIYYCVRLLLPAMDYWGQGTSVTVSS VL: QIVLTQSPAIMSASLGERVTMTCTATSSVSSTYLHWYRQKPGSSPKLWIYSTSTLASGVPVRFRGSGSGTSYSLTISSMEAEDAATYYCHQYRRSPYTFGGGTKLEIK", "nM", 41]
]}
